# test-system: E. coli sulfate binding protein variant R134C, fluorophore conjugate (Escherichia coli, UniProt P0AG78, R153C)
# Construct: Gly-Ser-Gly-(His)n or Gly-Ser-(His)n, n=5, 6 or 10 (C); initiator methionine (N); made in house; host or cells: E. coli strain BL21-DE3
# Sequence (P0AG78 20-329 R153C): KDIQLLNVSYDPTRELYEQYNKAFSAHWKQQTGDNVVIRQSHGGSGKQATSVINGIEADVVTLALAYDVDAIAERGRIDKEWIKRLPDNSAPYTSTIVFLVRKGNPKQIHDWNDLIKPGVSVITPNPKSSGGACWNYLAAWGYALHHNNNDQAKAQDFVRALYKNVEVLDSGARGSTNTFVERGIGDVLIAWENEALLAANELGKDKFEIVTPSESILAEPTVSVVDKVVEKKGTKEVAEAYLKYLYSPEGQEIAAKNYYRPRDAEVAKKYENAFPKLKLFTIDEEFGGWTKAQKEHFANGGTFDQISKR
# assay-explanation: Fluorimetric titration of fluorophore conjugates
# test-context: R134C-acrylodan
attribute-measured: Kd

Incoming: # query: Kd of entry O=S(=O)(O)O [sulfate]
Outgoing: ~4 µM

---

# test-system: E. coli dipeptide binding protein variant W315C, fluorophore conjugate (Escherichia coli, UniProt P23847, W343C)
# Construct: initiation methionine (N); Gly-Ser-Gly-(His)n or Gly-Ser-(His)n (C); made in house; host or cells: E. coli BL21-DE3
# Sequence (P23847 29-535 W343C): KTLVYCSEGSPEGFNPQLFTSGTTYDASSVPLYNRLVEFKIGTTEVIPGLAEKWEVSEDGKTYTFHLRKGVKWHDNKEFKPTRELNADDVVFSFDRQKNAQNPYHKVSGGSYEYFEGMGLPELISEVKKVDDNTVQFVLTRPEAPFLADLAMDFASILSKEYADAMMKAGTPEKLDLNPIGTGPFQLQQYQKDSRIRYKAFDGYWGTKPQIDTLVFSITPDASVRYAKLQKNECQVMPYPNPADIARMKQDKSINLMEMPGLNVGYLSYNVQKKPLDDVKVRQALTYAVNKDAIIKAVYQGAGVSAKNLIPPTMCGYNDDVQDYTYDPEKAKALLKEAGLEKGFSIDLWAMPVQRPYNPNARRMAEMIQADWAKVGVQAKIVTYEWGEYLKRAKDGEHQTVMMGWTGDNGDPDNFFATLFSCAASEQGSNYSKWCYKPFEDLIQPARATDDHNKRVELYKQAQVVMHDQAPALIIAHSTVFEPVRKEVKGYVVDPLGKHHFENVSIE
# assay-explanation: Fluorimetric titration of fluorophore conjugates
# test-context: JPW4039 conjugate, peristeric site
attribute-measured: Kd (nM)
Give bare numbers, in nM.

Incoming: # query: Kd of entry CC(C)C[C@H](NC(=O)CN)C(=O)O [Gly-Leu, Gly-Leu dipeptide]
Outgoing: 1000

---

# test-system: E. coli arabinose binding protein variant C64A/K301C, fluorophore conjugate (Escherichia coli, UniProt P02924, C87A/K324C)
# Construct: initiator methionine (N); Gly-Ser-Gly-(His)n or Gly-Ser-(His)n (n = 5, 6 or 10) (C); made in house; host or cells: E. coli BL21-DE3
# Sequence (P02924 24-329 C87A/K324C): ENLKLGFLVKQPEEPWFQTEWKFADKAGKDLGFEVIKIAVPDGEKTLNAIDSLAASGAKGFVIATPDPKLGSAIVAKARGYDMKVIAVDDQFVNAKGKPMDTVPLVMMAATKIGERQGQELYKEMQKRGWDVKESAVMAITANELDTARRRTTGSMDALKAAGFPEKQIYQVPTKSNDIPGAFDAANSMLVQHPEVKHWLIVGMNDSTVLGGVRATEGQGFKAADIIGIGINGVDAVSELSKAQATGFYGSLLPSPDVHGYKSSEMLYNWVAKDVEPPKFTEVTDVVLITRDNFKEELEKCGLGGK
# assay-explanation: Fluorimetric titration of fluorophore conjugates
# test-context: K301C-NBD conjugate
pKd: −log10 of the molar value.
attribute-measured: pKd

Incoming: # query: pKd of entry OC1OC[C@H](O)[C@H](O)[C@H]1O (stereo partly shown) [arabinose]
Outgoing: ~4.51

---

# test-system: E. coli arabinose binding protein variant C64A/L253C, fluorophore conjugate (Escherichia coli, UniProt P02924, C87A/L276C)
# Construct: initiator methionine (N); Gly-Ser-Gly-(His)n or Gly-Ser-(His)n (n = 5, 6 or 10) (C); made in house; host or cells: E. coli BL21-DE3
# Sequence (P02924 24-329 C87A/L276C): as the sequence (P02924 24-329 C87A/K324C) above, with L253C, C301K counted along it
# assay-explanation: Fluorimetric titration of fluorophore conjugates
# test-context: JPW4039 conjugate, allosteric site
attribute-measured: Kd (µM)
Answers are plain numbers, in µM.

Incoming: # query: Kd of entry OC1OC[C@H](O)[C@H](O)[C@H]1O (stereo partly shown) [arabinose]
Outgoing: 165

---

# test-system: E. coli glucose binding protein variant W183C, fluorophore conjugate (Escherichia coli, UniProt P0AEE5, W206C)
# Sequence (P0AEE5 24-332 W206C limits assumed): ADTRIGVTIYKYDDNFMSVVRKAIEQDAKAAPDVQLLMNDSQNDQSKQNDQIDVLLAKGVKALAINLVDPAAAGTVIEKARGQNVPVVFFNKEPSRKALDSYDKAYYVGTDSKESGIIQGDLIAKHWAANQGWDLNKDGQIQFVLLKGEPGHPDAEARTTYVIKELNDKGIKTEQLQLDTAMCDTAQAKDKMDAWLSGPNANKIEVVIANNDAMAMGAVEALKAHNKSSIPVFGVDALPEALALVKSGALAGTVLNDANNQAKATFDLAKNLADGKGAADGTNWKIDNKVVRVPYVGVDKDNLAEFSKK
# assay-explanation: biochemical
# test-context: appKd, W183C-acrylodan, ratiometric, F450-459/F486-495
pKd: −log10 of the molar value.
attribute-measured: pKd

Incoming: # query: pKd of entry OC[C@H]1OC(O)[C@H](O)[C@@H](O)[C@@H]1O (stereo partly shown) [glucose]
Outgoing: ~1.98

---

# test-system: E. coli ribose binding protein variant A234C, fluorophore conjugate (Escherichia coli, UniProt P02925, A259C)
# Construct: Gly-Ser-Gly-(His)n or Gly-Ser-(His)n, n=5, 6 or 10 (C); initiator methionine (N); made in house; host or cells: E. coli strain BL21-DE3
# Sequence (P02925 26-296 A259C): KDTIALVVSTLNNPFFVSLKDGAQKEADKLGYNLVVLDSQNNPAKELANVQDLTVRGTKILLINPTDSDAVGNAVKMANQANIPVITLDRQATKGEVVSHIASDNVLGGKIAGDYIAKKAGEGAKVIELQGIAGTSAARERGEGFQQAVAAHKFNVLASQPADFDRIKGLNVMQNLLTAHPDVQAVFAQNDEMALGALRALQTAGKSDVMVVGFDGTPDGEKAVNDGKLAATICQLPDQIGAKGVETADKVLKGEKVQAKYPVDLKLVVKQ
# assay-explanation: Fluorimetric titration of fluorophore conjugates
# test-context: JPW4045 conjugate, ligand ribose
attribute-measured: Kd (µM)
Give bare numbers, in µM.

Incoming: # query: Kd of entry OC1OC[C@@H](O)[C@@H](O)[C@H]1O (stereo partly shown)
Outgoing: 3.76

---

# test-system: E. coli arabinose binding protein variant C64A/L253C, fluorophore conjugate (Escherichia coli, UniProt P02924, C87A/L276C)
# Construct: initiator methionine (N); Gly-Ser-Gly-(His)n or Gly-Ser-(His)n (n = 5, 6 or 10) (C); made in house; host or cells: E. coli BL21-DE3
# assay-explanation: Fluorimetric titration of fluorophore conjugates
# test-context: NBD conjugate, allosteric site
attribute-measured: Kd (µM)
Answers are plain numbers, in µM.

Incoming: # query: Kd of entry OC1OC[C@H](O)[C@H](O)[C@H]1O (stereo partly shown)
Outgoing: 775

---

# test-system: E. coli arabinose binding protein variant C64A/L253C, fluorophore conjugate (Escherichia coli, UniProt P02924, C87A/L276C)
# Construct: initiator methionine (N); Gly-Ser-Gly-(His)n or Gly-Ser-(His)n (n = 5, 6 or 10) (C); made in house; host or cells: E. coli BL21-DE3
# assay-explanation: Fluorimetric titration of fluorophore conjugates
# test-context: Acrylodan conjugate, allosteric site
attribute-measured: Kd (nM)
One number for each entry, in nM.

Incoming: # query: Kd of entry OC1OC[C@H](O)[C@H](O)[C@H]1O (stereo partly shown)
Outgoing: 690

---

# test-system: E. coli histidine binding protein (SEQ ID NO:2) variant V163C, fluorophore conjugate (Escherichia coli, UniProt P0AEU0, V185C)
# assay-explanation: biochemical
# test-context: V163C-JPW4042
attribute-measured: Kd
Phrase the answer as number then unit, nothing more needed.

Incoming: # query: Kd of entry `N[C@@H](Cc1c[nH]cn1)C(=O)O`
Outgoing: 250 nM

---

# test-system: E. coli dipeptide binding protein variant W315C, fluorophore conjugate (Escherichia coli, UniProt P23847, W343C)
# Construct: initiation methionine (N); Gly-Ser-Gly-(His)n or Gly-Ser-(His)n (C); made in house; host or cells: E. coli BL21-DE3
# assay-explanation: Fluorimetric titration of fluorophore conjugates
# test-context: Acrylodan conjugate, peristeric site
attribute-measured: Kd (nM)
Give bare numbers, in nM.

Incoming: # query: Kd of entry CC(C)C[C@H](NC(=O)CN)C(=O)O [Gly-Leu, Gly-Leu dipeptide]
Outgoing: 130

---

# test-system: E. coli dipeptide binding protein variant W315C, fluorophore conjugate (Escherichia coli, UniProt P23847, W343C)
# Construct: initiation methionine (N); Gly-Ser-Gly-(His)n or Gly-Ser-(His)n (C); made in house; host or cells: E. coli BL21-DE3
# assay-explanation: Fluorimetric titration of fluorophore conjugates
# test-context: NBD conjugate, peristeric site
attribute-measured: Kd (µM)
Give bare numbers, in µM.

Incoming: # query: Kd of entry CC(C)C[C@H](NC(=O)CN)C(=O)O [Gly-Leu, Gly-Leu dipeptide]
Outgoing: 0.06

---

# test-system: E. coli histidine binding protein (SEQ ID NO:2) variant V163C, fluorophore conjugate (Escherichia coli, UniProt P0AEU0, V185C)
# assay-explanation: biochemical
# test-context: NBD conjugate, peristeric site
attribute-measured: pKd
Give bare numbers, as −log10 of the molar value.

Incoming: # query: pKd of entry `N[C@@H](Cc1c[nH]cn1)C(=O)O`
Outgoing: 5.63

---

# test-system: E. coli arabinose binding protein variant C64A/L253C, fluorophore conjugate (Escherichia coli, UniProt P02924, C87A/L276C)
# Construct: initiator methionine (N); Gly-Ser-Gly-(His)n or Gly-Ser-(His)n (n = 5, 6 or 10) (C); made in house; host or cells: E. coli BL21-DE3
# assay-explanation: Fluorimetric titration of fluorophore conjugates
# test-context: L253C-fluorescein conjugate
attribute-measured: Kd

Incoming: # query: Kd of entry OC1OC[C@H](O)[C@H](O)[C@H]1O (stereo partly shown)
Outgoing: ~48 µM

---

# test-system: E. coli glutamate/aspartate binding protein (YBEJ, SEQ ID NO:3) variant Q123C, fluorophore conjugate (Escherichia coli, UniProt P37902, Q123C)
# Construct: The underlined methionine is the initiation codon for expression of YBEJ used in the study; initiation methionine (N); Gly-Ser-Gly-(His)n or Gly-Ser-(His)n (C)
# assay-explanation: Fluorimetric titration of fluorophore conjugates
# Description: Molecular Cloning. […] Additionally the sequence of Fe(III) BP was mutated by substitution of Glu57 with Asp to raise the Kd to a concentration range conveniently measured using Fe(III) citrate. […] Fluorimetry. […] Fluorescence emission spectra were acquired with excitation and emission slit widths of 4 and 8 nm, respectively. […] Analyte affinity measurements. […] The emission wavelength monitored was that of maximum difference in intensity between the ligand-free and bound states. […]
attribute-measured: Kd (µM)
Give bare numbers, in µM.

I have 2 compounds here; please give me Kd for each one.
1. NC(=O)CC[C@H](N)C(=O)O [glutamine]
2. NC(=O)C[C@H](N)C(=O)O [asparagine]

Outgoing:
49
96

---

# test-system: E. coli dipeptide binding protein variant S111C, fluorophore conjugate (Escherichia coli, UniProt P23847, S139C)
# Construct: initiator methionine (N); Gly-Ser-Gly-(His)n or Gly-Ser-(His)n (n = 5, 6 or 10) (C); made in house; host or cells: E. coli BL21-DE3
# Sequence (P23847 29-535 S139C): as the sequence (P23847 29-535 W343C) above, with S111C, C315W counted along it
# assay-explanation: Fluorimetric titration of fluorophore conjugates
# test-context: JPW4042 conjugate, peristeric site
attribute-measured: pKd
Answers are plain numbers, as −log10 of the molar value.

Incoming: # query: pKd of entry CC(C)C[C@H](NC(=O)CN)C(=O)O [Gly-Leu, Gly-Leu dipeptide]
Outgoing: 4.80
